# measurement.description: 28-day repeated-dose oral toxicity
# Format: in vivo
# settings: both sexes, Crl:CD (SD)IGS BR, rat, in vivo, po
# Method: In the rat repeated-dose toxicokinetic study, fexinidazole was administered orally by gavage once a day for 28 consecutive days to ten or fifteen Crl:CD (SD)IGS BR rats/sex/group at doses of 50, 200, or 800 mg/kg/day. […] Systemic exposure to fexinidazole and its sulfoxide and sulfone metabolites was evaluated in three additional animals/sex/group. […] Mortality, behavior and general condition were observed daily. Body weight was recorded pretest, and on Days 1, 8, 14, 21, 28, 35 and 42. […]
property: NOAEL at 28 days (mg/kg/day)
Give the quantity in mg/kg/day, number only.

Problem: Entry under review: CSc1ccc(OCc2ncc([N+](=O)[O-])n2C)cc1 [Fexinidazole] . Reported NOAEL at 28 days?
Result: 200

----------
# measurement.description: Rat single-dose IV and oral pharmacokinetics
# Assay type: in vivo
# settings: male, Sprague Dawley, plasma, po, 10 mg/kg, fexinidazole 10 mg/kg oral, read-out: AUC0-∞
property: AUC(0-inf) (ng·h/mL)
The figure you give is taken to be in ng·h/mL; do not add the unit.

Problem: Returns the measured AUC(0-inf) for the input compound. Input: `CSc1ccc(OCc2ncc([N+](=O)[O-])n2C)cc1`
Result: 662

----------
# measurement.description: Rat 28-day toxicokinetics
# Type: in vivo
# settings: Sprague-Dawley (Crl:CD (SD)IGS BR), plasma, po, 50 mg/kg/day, Day 28, male, read-out: AUC within 24 hours post dosing
property: AUC

Problem: # input molecule: `Cn1c([N+](=O)[O-])cnc1COc1ccc(S(C)(=O)=O)cc1` ; wanted: its AUC
Result: 106 µg·h/mL

----------
# measurement.description: Hepatocyte intrinsic clearance and metabolite profile
# Type: in vitro ADME, mouse
# settings: male, CD-1, mouse, cryopreserved hepatocytes; 1 µM; read-out: CLint in vitro
property: CLint scaled at 1 µM (mL/min/kg)
Supply the numeric figure in mL/min/kg, leaving out any unit text.

Problem: Fill in the blank: the reported CLint scaled at 1 µM of CCOc1ccc2ccc(=O)oc2c1 [7-ethoxycoumarin, reference compound] is ____.
Result: 2380

----------
# measurement.description: in vivo
# settings: male, NMRI, mouse, po, 200 mg/kg/day
property: Tmax (h)
Give the quantity in h, number only.

Problem: Suppose we examine the molecule CC1CS(=O)(=O)CCN1/N=C/c1ccc([N+](=O)[O-])o1 (stereo not shown) [Nifurtimox] ; what Tmax value has been reported?
Result: 1.5

----------
Here, each record is paired with measured AUC(0-t) data.
# measurement.description: Dog 28-day toxicokinetics
# Format: in vivo
# settings: both sexes, beagle, plasma, po, 50 mg/kg/day, 50 mg/kg/day po, day 1, read-out: AUC0-t(last)
// units = ng·h/mL; emit number, no label

{"columns": ["compound", "reported.value"],
 "data": [
  ["Cn1c([N+](=O)[O-])cnc1COc1ccc([S+](C)[O-])cc1 (stereo not drawn) [Fexinidazole sulfoxide]", 19600]
]}

Problem: Data request, read-out AUC(0-t), for CSc1ccc(OCc2ncc([N+](=O)[O-])n2C)cc1 [Fexinidazole]
Result: 190

Problem: GET /values?readout=AUC(0-t)&item= Cn1c([N+](=O)[O-])cnc1COc1ccc(S(C)(=O)=O)cc1 [Fexinidazole sulfone]
Result: 146000

----------
compounds and their reported Cmax
# measurement.description: Rat 28-day toxicokinetics
# Assay type: in vivo
# settings: male, Sprague Dawley (Crl:CD (SD)IGS BR), plasma, po, 50 mg/kg, Day 1, male
Supply the numeric figure in ng/mL, leaving out any unit text.

Some compounds with known Cmax results, for comparison:
{"columns": ["compound", "Cmax / ng/mL"],
 "data": [
  ["Cn1c([N+](=O)[O-])cnc1COc1ccc([S+](C)[O-])cc1 (stereo not drawn) [Fexinidazole sulfoxide]", 1500],
  ["CSc1ccc(OCc2ncc([N+](=O)[O-])n2C)cc1", 39]
]}

// next item, Cmax requested
Problem: Record request: Cmax value, item `Cn1c([N+](=O)[O-])cnc1COc1ccc(S(C)(=O)=O)cc1`
Result: 1420

----------
# measurement.description: Dog single-dose IV and oral pharmacokinetics
# Format: in vivo
# settings: male, Beagle, dog, plasma; fexinidazole 10 mg/kg oral
Recorded Tmax values for a group of compounds are listed next.
Write it as a number; the unit h goes unstated.

{"columns": ["compound", "Tmax [h]"],
 "data": [
  ["Cn1c([N+](=O)[O-])cnc1COc1ccc([S+](C)[O-])cc1 (stereo not drawn) [Fexinidazole sulfoxide]", 1.17],
  ["CSc1ccc(OCc2ncc([N+](=O)[O-])n2C)cc1", 0.667]
]}

Problem: I am curious: what Tmax value has been reported for `Cn1c([N+](=O)[O-])cnc1COc1ccc(S(C)(=O)=O)cc1` ?
Result: 6.67

----------
# measurement.description: Hepatocyte intrinsic clearance and metabolite profile
# Assay type: in vitro ADME, rat
# settings: male, Sprague Dawley, rat, cryopreserved hepatocytes; 1 µM; read-out: CLint in vitro
property: CLint scaled at 1 µM (mL/min/kg)
Give the number; mL/min/kg is assumed, so skip it.

Problem: Which CLint scaled at 1 µM is reported for this compound? CCOc1ccc2ccc(=O)oc2c1 [7-ethoxycoumarin, reference compound]
Result: 251

----------
concentration at 5 min overview
# measurement.description: Mouse brain concentrations
# Type: in vivo
# settings: female, NMRI, mouse, brain homogenate, intravenous, 1 mg/kg, fexinidazole 1 mg/kg iv, 5 min; read-out: Brain homogenate concentration
Your answer should be a plain number; it is taken to be in ng/mL.

{"columns": ["compound", "units", "concentration at 5 min"],
 "data": [
  ["Cn1c([N+](=O)[O-])cnc1COc1ccc([S+](C)[O-])cc1 (centres unmarked) [Fexinidazole sulfoxide]", "ng/mL", 39.9]
]}

// next entry
Problem: # query: concentration at 5 min of entry `CSc1ccc(OCc2ncc([N+](=O)[O-])n2C)cc1`
Result: 92.5

----------
# measurement.description: Rat 28-day toxicokinetics
# Type: in vivo
# settings: male, Sprague Dawley (Crl:CD (SD)IGS BR), plasma, po, 800 mg/kg/day, Day 28, male
property: Cmax (µg/mL)
Answer format: numeric, µg/mL implied, no suffix.

Reference set (2 entries):
{"columns": ["compound", "Cmax / µg/mL"],
 "data": [
  ["Cn1c([N+](=O)[O-])cnc1COc1ccc([S+](C)[O-])cc1 (stereo not drawn) [Fexinidazole sulfoxide]", 16.6],
  ["CSc1ccc(OCc2ncc([N+](=O)[O-])n2C)cc1 [Fexinidazole]", 0.523]
]}

Turning to the following compound.
Problem: What value of Cmax has been reported for the following compound? Cn1c([N+](=O)[O-])cnc1COc1ccc(S(C)(=O)=O)cc1 [Fexinidazole sulfone]
Result: 33

----------
# measurement.description: Hepatocyte intrinsic clearance and metabolite profile
# Assay type: in vitro ADME, human
# settings: human, cryopreserved pooled hepatocytes, 1 µM; read-out: CLint in vitro
property: CLint scaled at 1 µM (mL/min/kg)
I only need the number, in mL/min/kg, no unit after it.

{"columns": ["compound", "CLint scaled at 1 µM / mL/min/kg"],
 "data": [
  ["CCOc1ccc2ccc(=O)oc2c1 [7-ethoxycoumarin, reference compound]", 345]
]}

Consider now this further compound.
Problem: Consider the compound shown here: `CSc1ccc(OCc2ncc([N+](=O)[O-])n2C)cc1` What is its recorded CLint scaled at 1 µM?
Result: 124

----------
# measurement.description: Mouse single-dose plasma pharmacokinetics
# Format: in vivo
# settings: female, NMRI, plasma; mouse, fexinidazole 25 mg/kg po vs 1 mg/kg iv
A collection of molecules and their measured bioavailability
Respond with the bare value in %.

{"columns": ["molecule", "units", "reported.value"],
 "data": [
  ["CSc1ccc(OCc2ncc([N+](=O)[O-])n2C)cc1 [Fexinidazole]", "%", 41.4]
]}

Now take the following molecule into account.
Problem: What value of bioavailability has been recorded for this entry: Cn1c([N+](=O)[O-])cnc1COc1ccc(S(C)(=O)=O)cc1 [Fexinidazole sulfone]
Result: 48.8

----------
# measurement.description: Rat 28-day toxicokinetics
# Format: in vivo
# settings: female, Sprague Dawley (Crl:CD (SD)IGS BR), plasma, po, 50 mg/kg/day, Day 28, female
property: Cmax (ng/mL)
Give just the numeric value; ng/mL need not be written.

{"columns": ["compound", "reported.value"],
 "data": [
  ["CSc1ccc(OCc2ncc([N+](=O)[O-])n2C)cc1 [Fexinidazole]", 422]
]}

Problem: # input compound: Cn1c([N+](=O)[O-])cnc1COc1ccc([S+](C)[O-])cc1 (stereo not drawn) [Fexinidazole sulfoxide] ; wanted: its Cmax
Result: 11400

Problem: Endpoint output: Cmax of Cn1c([N+](=O)[O-])cnc1COc1ccc(S(C)(=O)=O)cc1 [Fexinidazole sulfone] . Value?
Result: 10700
